Values compiled from paper PMC8860572.

Assayed system: nsp14–nsp10 (Severe acute respiratory syndrome coronavirus 2, UniProt P0DTD1)
Format: binding, SARS-CoV-2
Test conditions: 100 µM compound, 1 µM nsp14-10
Parameter measured: ΔTm (°C)
Write the value in °C as a bare number.

Here is how some molecules turned out for ΔTm.
CN(C)C(=S)SSC(=S)N(C)C [thiram, reference compound]
-0.21
O=C(O)c1nc(-c2ccccc2)nc(O)c1O
0.46
COc1ccc2c3c(cccc13)C(=O)N(O)C2=O
0.60
O=c1c2ccccc2n(Cc2ccccc2)c(=O)n1O
0.62
CCN(CC)C(=S)SSC(=S)N(CC)CC [disulfiram, reference compound]
0.33

# context switch: different molecule, same ΔTm
Record request: ΔTm value, item O=c1c2ccccc2[nH]c(=S)n1O
0.61

###

Assayed system: nsp14–nsp10 (Severe acute respiratory syndrome coronavirus 2)
Assay type: binding, SARS-CoV-2
Test conditions: 3.1 µM compound, 1 µM nsp14-10
Reported ΔTm values are given for each entry in this list.
Write the value in °C as a bare number.

Here is how some molecules turned out for ΔTm.
CN(C)C(=S)SSC(=S)N(C)C [thiram, reference compound]
-0.53
O=c1c2ccccc2n(Cc2ccccc2)c(=O)n1O
-0.06
CCN(CC)C(=S)SSC(=S)N(CC)CC [disulfiram, reference compound]
-0.53
COc1ccc2c3c(cccc13)C(=O)N(O)C2=O
0.02
O=c1[nH]c2ccccc2c(=O)n1O
-0.10
COc1cc2c3c(cccc3c1)C(=O)N(O)C2=O
0.01

Record request: ΔTm value, item O=c1c2ccccc2[nH]c(=S)n1O
0.00

Now the molecule O=C(O)c1nc(-c2ccccc2)nc(O)c1O
-0.15

Now the molecule O=C(O)C1=CC(=C(c2ccc(O)c(C(=O)O)c2)c2ccc(O)c(C(=O)O)c2)C=CC1=O [ATA, Aurintricarboxylic acid, reference compound]
0.33

###

Assayed system: nsp14–nsp10 (Severe acute respiratory syndrome coronavirus 2, UniProt P0DTD1)
Assay type: binding, SARS-CoV-2
Test conditions: 6.3 µM compound, 1 µM nsp14-10
Please note: condition met applies when ΔTm is 0.1 °C or greater, and condition not met applies otherwise.

Record excerpt, results attached:
COc1ccc2c3c(cccc13)C(=O)N(O)C2=O [A-1]
condition met
O=c1c2ccccc2n(Cc2ccccc2)c(=O)n1O [A-4]
condition met
O=c1[nH]c2ccccc2c(=O)n1O [A-3]
condition met
COc1cc2c3c(cccc3c1)C(=O)N(O)C2=O [A-2]
condition met
O=C(O)C1=CC(=C(c2ccc(O)c(C(=O)O)c2)c2ccc(O)c(C(=O)O)c2)C=CC1=O [ATA, Aurintricarboxylic acid, reference compound]
condition met

API: above_or_equal(metric=ΔTm, cutoff=0.1 °C) for item CCN(CC)C(=S)SSC(=S)N(CC)CC [disulfiram, reference compound]
condition not met

Now the compound O=c1c2ccccc2[nH]c(=S)n1O [A-5]
condition met

Now the compound O=C(O)c1nc(-c2ccccc2)nc(O)c1O [B-1]
condition not met

Now the compound CN(C)C(=S)SSC(=S)N(C)C [thiram, reference compound]
condition not met

###

Assayed system: nsp14–nsp10 (Severe acute respiratory syndrome coronavirus 2, UniProt P0DTD1)
Format: binding, SARS-CoV-2
Test conditions: 25 µM compound, 1 µM nsp14-10
Reported ΔTm values are given for each entry in this list.
Write the value in °C as a bare number.

Here is how some compounds turned out for ΔTm.
CN(C)C(=S)SSC(=S)N(C)C [thiram, reference compound]
-0.42
O=c1c2ccccc2n(Cc2ccccc2)c(=O)n1O
-1.33
O=C(O)c1nc(-c2ccccc2)nc(O)c1O
-0.57
O=C(O)C1=CC(=C(c2ccc(O)c(C(=O)O)c2)c2ccc(O)c(C(=O)O)c2)C=CC1=O [ATA, Aurintricarboxylic acid, reference compound]
3.08
O=c1c2ccccc2[nH]c(=S)n1O
0.00

Record request: ΔTm value, item COc1cc2c3c(cccc3c1)C(=O)N(O)C2=O
0.21

Now the compound O=c1[nH]c2ccccc2c(=O)n1O
1.33

Now the compound COc1ccc2c3c(cccc13)C(=O)N(O)C2=O
0.17

Now the compound CCN(CC)C(=S)SSC(=S)N(CC)CC [disulfiram, reference compound]
-0.42
